molecular target: human-liver type GST-GK (Homo sapiens); assay: Glucokinase activation effect (G6PDH-coupled NADPH assay); conditions: 5 mM glucose, 5 mM ATP, 30° C., absorbance 340 nm for 15 minutes, 5% DMSO
pEC50: −log10 of the molar value.
parameter.measured: pEC50

(a) COCCCS(=O)(=O)c1ccc(/C(=N\OC2CCCC2)C(=O)Nc2ccc(C(N)=O)cn2)cc1
(b) CC(=O)N1CCC(OCc2cnc(NC(=O)/C(=N/O[C@@H]3CCOC3)c3ccc(S(=O)(=O)C4CC4)cc3)s2)CC1
(c) COc1ccc2nc(NC(=O)/C(=N/O[C@@H]3CCOC3)c3ccc(S(=O)(=O)C4CC4)cc3)sc2n1
Rank the listed compounds by pEC50, largest first. Kindly provide the labels arranged according to the requested ordering. c, b, a

---

target: human-liver type GST-GK (Homo sapiens, UniProt P35557); assay: Glucokinase activation effect (G6PDH-coupled NADPH assay); conditions: 5 mM glucose, 5 mM ATP, 30° C., absorbance 340 nm for 15 minutes, 5% DMSO
Sequence (P35557 1-466 isoform P35557-2): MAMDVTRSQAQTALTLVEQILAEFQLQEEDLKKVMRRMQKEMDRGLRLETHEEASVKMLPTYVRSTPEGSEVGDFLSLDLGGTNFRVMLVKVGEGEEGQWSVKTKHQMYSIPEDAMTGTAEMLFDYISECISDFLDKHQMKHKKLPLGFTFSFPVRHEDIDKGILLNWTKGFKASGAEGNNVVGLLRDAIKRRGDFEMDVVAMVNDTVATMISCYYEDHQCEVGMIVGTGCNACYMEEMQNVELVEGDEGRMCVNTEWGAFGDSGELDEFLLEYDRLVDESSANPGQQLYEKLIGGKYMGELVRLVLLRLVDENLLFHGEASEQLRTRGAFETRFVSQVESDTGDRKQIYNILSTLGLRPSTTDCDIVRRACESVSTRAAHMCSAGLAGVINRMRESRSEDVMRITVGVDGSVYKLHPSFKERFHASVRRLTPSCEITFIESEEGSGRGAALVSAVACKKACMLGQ
parameter.measured: EC50 (µM)

(a) CNc1ccc2nc(NC(=O)/C(=N/O[C@@H]3CCOC3)c3ccc(S(=O)(=O)CCCOC)cc3)sc2n1
(b) COCC(=O)N1[C@H](C)CN(Cc2cnc(NC(=O)/C(=N/O[C@@H]3CCOC3)c3ccc(S(=O)(=O)C4CC4)cc3)s2)C[C@@H]1C
Name the one with the greater EC50 value, either a or b as given. Please respond with the label that marks your chosen entry. b

(a) COCCCS(=O)(=O)c1ccc(/C(=N\O[C@@H]2CCOC2)C(=O)Nc2ncc(COC)s2)cc1
(b) Cn1ccc(CO/N=C(/C(=O)Nc2ncc(F)s2)c2ccc(S(=O)(=O)C3CC3)cc2)n1
(c) CN(C)CCOc1ccc2nc(NC(=O)/C(=N/O[C@@H]3CCOC3)c3ccc(S(=O)(=O)C4CC4)cc3)sc2n1
(d) CS(=O)(=O)c1ccc(/C(=N\OC2CCCC2)C(=O)Nc2ncc(C(N)=O)s2)cc1
Rank the items in ascending order with respect to EC50. Kindly provide the labels arranged according to the requested ordering. c, b, d, a
(c: 0.17 µM, b: 0.27 µM, d: 0.52 µM, a: 0.84 µM)

---

biological target: human-liver type GST-GK (Homo sapiens, UniProt P35557); construct: made in house; host or cells: E. coli; experiment: Glucokinase activation effect (G6PDH-coupled NADPH assay); assay type: biochemical; settings: 5 mM glucose, 5 mM ATP, 30° C., absorbance 340 nm for 15 minutes, 5% DMSO
pEC50: −log10 of the molar value.
parameter.measured: pEC50

Answered examples (5):
>  <input.smiles>
CNCCOc1ccc2nc(NC(=O)/C(=N/O[C@@H]3CCOC3)c3ccc(S(=O)(=O)NCCO)cc3)sc2n1

>  <parameter.measured>
pEC50

>  <recorded.number>
6.34

$$$$
>  <input.smiles>
O=C(Nc1ncc(F)s1)/C(=N/O[C@@H]1CCOC1)c1ccc(S(=O)(=O)N2CCCOCC2)cc1

>  <parameter.measured>
pEC50

>  <recorded.number>
6.59

$$$$
>  <input.smiles>
O=C(Nc1nccs1)/C(=N/OCc1ccccn1)c1ccc(S(=O)(=O)C2CC2)cc1

>  <parameter.measured>
pEC50

>  <recorded.number>
6.29

$$$$
>  <input.smiles>
O=C(Nc1ncc(F)s1)/C(=N/OCCCO)c1ccc(S(=O)(=O)C2CC2)cc1

>  <parameter.measured>
pEC50

>  <recorded.number>
6.41

$$$$
>  <input.smiles>
COc1cnc(NC(=O)/C(=N/O[C@@H]2CC[C@@H](OC)C2)c2ccc(S(=O)(=O)C3CC3)cc2)cn1

>  <parameter.measured>
pEC50

>  <recorded.number>
6.27

$$$$

(1) CC(=O)N1CCN(Cc2cnc(NC(=O)/C(=N/O[C@@H]3CCOC3)c3ccc(S(=O)(=O)[C@H]4CCOC4)cc3)s2)C[C@H]1C
(2) O=C(O)CCSc1cnc(NC(=O)/C(=N/O[C@@H]2CCOC2)c2ccc(S(=O)(=O)C3CC3)cc2)s1
Among 1 and 2 , whose measured pEC50 is the smaller figure? Please respond with the label that marks your chosen entry. 1
